Reported self-cleavage values for a set of variants
B1: Twister Ribozyme (parent)
chain: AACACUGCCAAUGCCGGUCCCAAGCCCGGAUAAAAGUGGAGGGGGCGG

# Variants of: B1
# Protocol Summary: self-cleavage, relative activity (ratio to wild type); higher = more cleavage; co-transcriptional
Output spec: single numeric token, no unit.

**Q:** I'd like to know its self-cleavage. The variant in question is A22C G48A
**A:** 1.01

**Q:** I'd like to know its self-cleavage. The variant in question is C21G A30U
**A:** 0.0816

**Q:** I'd like to know its self-cleavage. The variant in question is A2U G24A
**A:** 0.112
